# Measured target: Extracellular calcium-sensing receptor (Rattus norvegicus)
# Sequence (P48442 whole entry): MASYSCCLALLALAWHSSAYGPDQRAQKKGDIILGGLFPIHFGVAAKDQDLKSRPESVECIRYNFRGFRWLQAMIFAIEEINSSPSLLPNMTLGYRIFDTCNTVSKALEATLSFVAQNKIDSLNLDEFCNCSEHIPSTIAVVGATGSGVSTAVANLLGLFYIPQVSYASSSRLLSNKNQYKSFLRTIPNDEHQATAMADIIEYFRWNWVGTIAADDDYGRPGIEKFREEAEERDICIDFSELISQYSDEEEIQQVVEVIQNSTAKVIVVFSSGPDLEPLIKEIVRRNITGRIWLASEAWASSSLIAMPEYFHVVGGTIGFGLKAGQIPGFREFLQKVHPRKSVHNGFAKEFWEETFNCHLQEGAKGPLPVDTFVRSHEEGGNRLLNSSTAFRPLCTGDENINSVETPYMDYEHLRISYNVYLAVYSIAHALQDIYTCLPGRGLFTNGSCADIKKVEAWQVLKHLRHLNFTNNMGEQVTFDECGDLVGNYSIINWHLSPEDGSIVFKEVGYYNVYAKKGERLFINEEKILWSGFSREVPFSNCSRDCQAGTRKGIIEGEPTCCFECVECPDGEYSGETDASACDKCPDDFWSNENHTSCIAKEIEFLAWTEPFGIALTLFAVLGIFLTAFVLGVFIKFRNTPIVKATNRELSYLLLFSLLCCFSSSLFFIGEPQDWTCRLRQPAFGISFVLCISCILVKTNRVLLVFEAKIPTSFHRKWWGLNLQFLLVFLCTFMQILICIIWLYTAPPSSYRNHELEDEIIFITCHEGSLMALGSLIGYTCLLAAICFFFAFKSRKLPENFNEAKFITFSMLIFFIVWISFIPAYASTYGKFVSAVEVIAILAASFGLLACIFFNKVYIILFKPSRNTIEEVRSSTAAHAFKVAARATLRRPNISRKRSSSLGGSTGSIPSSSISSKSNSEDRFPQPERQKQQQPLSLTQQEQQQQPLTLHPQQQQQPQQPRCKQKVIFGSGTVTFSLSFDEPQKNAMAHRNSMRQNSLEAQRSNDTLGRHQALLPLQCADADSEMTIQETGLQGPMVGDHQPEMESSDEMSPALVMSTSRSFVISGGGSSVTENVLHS
# Method: Activity at rat CaSR in CHO cells assessed as inhibition of calcium ion-induced [3H]inositol phosphate accumulation
Could you please mark Y for values of IC50 below 2000 nM and N for values at or above it?

Below are worked cases with known answers.
>>> category_label("COc1ccc(S(=O)(=O)N[C@@H]2CCCC[C@H]2NC(C)c2cccc3ccccc23)cc1 (some centres not stated)")
"N"
>>> category_label("C[C@@H](N[C@H]1CCCC[C@@H]1NS(=O)(=O)c1ccc(OC(F)(F)F)cc1)c1cccc2ccccc12")
"N"
>>> category_label("CC(C)(Cc1ccc2ccccc2c1)NC[C@@H](O)COc1cccc(Cl)c1C#N")
"Y"
>>> category_label("C[C@@H](N[C@@H]1CCCC[C@H]1NC(=O)c1ccc(OC(F)(F)F)cc1)c1cccc2ccccc12")
"Y"
>>> category_label("CC(N[C@@H]1CCCC[C@H]1NS(=O)(=O)c1ccc(OC(F)(F)F)cc1)c1cccc2ccccc12 (relative stereo)")
"N"

Is IC50 of "C[C@@H](N[C@H]1CCCC[C@@H]1NC(=O)c1ccc(OC(F)(F)F)cc1)c1cccc2ccccc12" strictly below 2000 nM? Y

Is IC50 of CC(N[C@@H]1CCCC[C@H]1NC(=O)c1ccc(OC(F)(F)F)cc1)c1cccc2ccccc12 (relative stereo) strictly below 2000 nM? Y

====

# Measured target: Extracellular calcium-sensing receptor (Rattus norvegicus)
# Method: Activity at rat CaSR in CHO cells assessed as inhibition of calcium ion-induced [3H]inositol phosphate accumulation at 10 uM
# Assay type: functional, cell-based
Active and inactive are the calls of the source. No cut-off for these calls is given here.
Property label: inhibition

Below are worked cases with known answers.
>>> recorded_value("COc1ccc(OC)c(S(=O)(=O)N[C@@H]2CCCC[C@H]2NC(C)c2cccc3ccccc23)c1 (relative stereo)")
"0%"
>>> recorded_value("C[C@H](N[C@H]1CCCC[C@@H]1NC(=O)c1ccc(OC(F)(F)F)cc1)c1cccc2ccccc12")
"inactive"
>>> recorded_value("CC(N[C@@H]1CCCC[C@H]1NC(=O)c1ccc(Cl)cc1)c1cccc2ccccc12 (relative stereo)")
"106%"
>>> recorded_value("CC(N[C@@H]1CCCC[C@H]1NS(=O)(=O)c1ccc(Cl)cc1)c1cccc2ccccc12 (some centres not stated)")
"73%"
>>> recorded_value("C[C@@H](N[C@@H]1CCCC[C@H]1NS(=O)(=O)c1ccc(OC(F)(F)F)cc1)c1cccc2ccccc12")
"32%"
>>> recorded_value("CC(N[C@@H]1CCCC[C@H]1NC(=O)c1ccc(OC(F)(F)F)cc1)c1cccc2ccccc12 (relative stereo)")
"95%"
>>> recorded_value("CC(N[C@@H]1CCCC[C@H]1NC(=O)c1ccc(Cl)c(Cl)c1)c1cccc2ccccc12 (relative stereo)")
"103%"
>>> recorded_value("C[C@@H](N[C@H]1CCCC[C@@H]1NC(=O)c1ccc(OC(F)(F)F)cc1)c1cccc2ccccc12")
"100%"
>>> recorded_value("O=[N+]([O-])c1ccc(S(=O)(=O)N[C@@H]2CCCC[C@H]2NCc2cccc3ccccc23)cc1 (relative stereo)")
"6%"
>>> recorded_value("CC(N[C@@H]1CCCC[C@H]1NS(=O)(=O)c1ccc(Cl)c(Cl)c1Cl)c1cccc2ccccc12 (relative stereo)")
"59%"

State its inhibition for this molecule: CC(N[C@@H]1CCCC[C@H]1NC(=O)c1ccccn1)c1cccc2ccccc12 (relative stereo) 76%

State its inhibition for this molecule: "C[C@H](N[C@@H]1CCCC[C@H]1NS(=O)(=O)c1ccc(OC(F)(F)F)cc1)c1cccc2ccccc12" inactive

State its inhibition for this molecule: CC(N[C@H]1CCCC[C@@H]1NS(=O)(=O)c1ccc([N+](=O)[O-])cc1)c1ccc(-c2ccccc2)cc1 (relative stereo) 7%

State its inhibition for this molecule: CC(N[C@@H]1CCCC[C@H]1NC(=O)c1ccccc1)c1cccc2ccccc12 (relative stereo) 78%

State its inhibition for this molecule: CC(N[C@@H]1CCCC[C@H]1NS(=O)(=O)c1ccc(C(F)(F)F)cc1)c1cccc2ccccc12 (some centres not stated) 75%

State its inhibition for this molecule: CC(N[C@@H]1CCCC[C@H]1NS(=O)(=O)c1ccc(Cl)c(Cl)c1)c1cccc2ccccc12 (relative stereo) 60%

State its inhibition for this molecule: CC(N[C@@H]1CCCC[C@H]1NS(=O)(=O)c1ccc([N+](=O)[O-])cc1)c1cccc2ccccc12 (relative stereo) 56%
